Sourced from PubChem BioAssay AID1963873

Provide the recorded viability, T/C for the entries that follow.
- Tested on: 276233-004-R-J1-PDC KRAS spheroids with HUVEC/MSC, viability
- test.name: Anticancer human tumor 276233-004-R-J1-PDC patient-derived colon adenocarcinoma cell line growth inhibition [KRAS2]
- test.parameters: second compound 0.1 µM; first compound 0.0316 µM; stronger effect = lower value
Please state the figure in %; there is no need to write the unit.

// query Give the measured viability, T/C for Cn1nccc1Nc1nccc(-c2cc3c(s2)C(C)(C)N(CCN2CCOCC2)C3=O)n1 + COc1cc2nc(C)nc(NC(C)c3cc(N)cc(C(F)(F)F)c3)c2cc1OC1CCOC1
// result 87.1

// query Return viability, T/C (reported value) for this molecule: CN(C)C/C=C/C(=O)Nc1cc2c(Nc3ccc(F)c(Cl)c3)ncnc2cc1O[C@H]1CCOC1 + C=CC(=O)N1CCN(c2nc(=O)n(-c3c(C)ccnc3C(C)C)c3nc(-c4c(O)cccc4F)c(F)cc23)C(C)C1
// result 75.8

// query Fill in reported viability, T/C for this entry: COc1cc(Nc2ncc3c(n2)-c2ccc(Cl)cc2C(c2c(F)cccc2OC)=NC3)ccc1C(=O)O + COc1cc2nc(C)nc(NC(C)c3cc(N)cc(C(F)(F)F)c3)c2cc1OC1CCOC1
// result 79.9

// query Name the recorded viability, T/C of the molecule listed here: CC1OCC2(CCN(c3cnc(Sc4ccnc(N)c4Cl)c(N)n3)CC2)C1N (stereo unspecified) + CNCc1ccccc1-c1csc(C(C)Nc2nc(C)nc3cc(OC)c(OC)cc23)c1
// result 73.8

// query Provide one value: measured viability, T/C of CC1COCCN1c1cc(-c2ccnn2C)c2ccnc(-c3ccn[nH]3)c2n1 (stereo unspecified) + C=CC(=O)N1CCN(c2nc(=O)n(-c3c(C)ccnc3C(C)C)c3nc(-c4c(O)cccc4F)c(F)cc23)C(C)C1
// result 104

// query Specify viability, T/C for CC(C)NCC(C(=O)N1CCN(c2ncnc3c2C(C)CC3O)CC1)c1ccc(Cl)cc1 (stereo unspecified) + C=CC(=O)N1CCN(c2nc(OCC3CCCN3C)nc3c2CCN(c2cccc4cccc(C)c24)C3)CC1CC#N and stop.
// result 80.6

----------
Would you mind telling me the reported pIC50 of each entry?
- Test system: 276233-004-R-J1-PDC KRAS spheroids with HUVEC/MSC, viability
- test.name: Anticancer human tumor 276233-004-R-J1-PDC cell line growth inhibition [KRAS2];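 also: cells exposed to agents for seven days before viability read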
- test.parameters: curve of first compound; second compound 3.16 µM
pIC50: −log10 of the molar value.

// query Please indicate pIC50 recorded for CC(=O)OC12COC1CC(O)C1(C)C(=O)C(O)C3=C(C)C(OC(=O)C(O)C(NC(=O)OC(C)(C)C)c4ccccc4)CC(O)(C(OC(=O)c4ccccc4)C21)C3(C)C (stereo not drawn) + CC1OCC2(CCN(c3cnc(Sc4ccnc(N)c4Cl)c(N)n3)CC2)C1N
// result > 8.00

// query Kindly indicate its recorded pIC50. Item: Cn1ncnc1[C@H]1c2n[nH]c(=O)c3cc(F)cc(c23)N[C@@H]1c1ccc(F)cc1 + CC1OCC2(CCN(c3cnc(Sc4ccnc(N)c4Cl)c(N)n3)CC2)C1N
// result < 7.00

// query Entry O=C(c1cc(Cc2n[nH]c(=O)c3ccccc23)ccc1F)N1CCN(C(=O)C2CC2)CC1 + COc1cc2nc(C)nc(NC(C)c3cc(N)cc(C(F)(F)F)c3)c2cc1OC1CCOC1 needs its pIC50 filled in; supply it.
// result < 5.00

// query Find the measured pIC50 of Cn1nccc1Nc1nccc(-c2cc3c(s2)C(C)(C)N(CCN2CCOCC2)C3=O)n1 + C=CC(=O)N1CCN(c2nc(=O)n(-c3c(C)ccnc3C(C)C)c3nc(-c4c(O)cccc4F)c(F)cc23)C(C)C1 and report it.
// result < 5.00

// query Tell me measured pIC50 for CC(C)n1nc(-c2ccc3oc(N)nc3c2)c2c(N)ncnc21 + COc1cc2nc(C)nc(NC(C)c3cc(N)cc(C(F)(F)F)c3)c2cc1OC1CCOC1 please.
// result < 7.00

// query Please give the documented pIC50 of CC1OCC2(CCN(c3cnc(Sc4ccnc(N)c4Cl)c(N)n3)CC2)C1N (stereo not drawn) + COc1cc2nc(C)nc(NC(C)c3cc(N)cc(C(F)(F)F)c3)c2cc1OC1CCOC1
// result 5.28

// query Consider the compound CC(C)n1nc(-c2ccc3oc(N)nc3c2)c2c(N)ncnc21 + C=CC(=O)N1CCN(c2nc(OCC3CCCN3C)nc3c2CCN(c2cccc4cccc(C)c24)C3)CC1CC#N . State its measured pIC50.
// result 7.34

// query Query pIC50 for CC1COCCN1c1cc(-c2ccnn2C)c2ccnc(-c3ccn[nH]3)c2n1 (stereo not drawn) + C=CC(=O)N1CCN(c2nc(OCC3CCCN3C)nc3c2CCN(c2cccc4cccc(C)c24)C3)CC1CC#N
// result 6.72

// query Kindly indicate its recorded pIC50. Item: COc1cc2nccc(Oc3ccc(NC(=O)C4(C(=O)Nc5ccc(F)cc5)CC4)cc3)c2cc1OC + CNCc1ccccc1-c1csc(C(C)Nc2nc(C)nc3cc(OC)c(OC)cc23)c1
// result > 7.50

// query Supply measured pIC50 of CC1(C)CCC(CN2CCN(c3ccc(C(=O)NS(=O)(=O)c4ccc(NCC5CCOCC5)c([N+](=O)[O-])c4)c(Oc4cnc5[nH]ccc5c4)c3)CC2)=C(c2ccc(Cl)cc2)C1 + C=CC(=O)N1CCN(c2nc(OCC3CCCN3C)nc3c2CCN(c2cccc4cccc(C)c24)C3)CC1CC#N in your reply.
// result > 7.50

// query Indicate its recorded pIC50; the compound in question is CC1COCCN1c1cc(-c2ccnn2C)c2ccnc(-c3ccn[nH]3)c2n1 (stereo not drawn) + C=CC(=O)N1CCN(c2nc(=O)n(-c3c(C)ccnc3C(C)C)c3nc(-c4c(O)cccc4F)c(F)cc23)C(C)C1
// result < 5.50

// query Output measured pIC50 for this item: CC(C)NCC(C(=O)N1CCN(c2ncnc3c2C(C)CC3O)CC1)c1ccc(Cl)cc1 (stereo not drawn) + CC1OCC2(CCN(c3cnc(Sc4ccnc(N)c4Cl)c(N)n3)CC2)C1N
// result 6.46

// query Supply reported pIC50 belonging to this compound: CC1OCC2(CCN(c3cnc(Sc4ccnc(N)c4Cl)c(N)n3)CC2)C1N (stereo not drawn) + C=CC(=O)N1CCN(c2nc(=O)n(-c3c(C)ccnc3C(C)C)c3nc(-c4c(O)cccc4F)c(F)cc23)C(C)C1
// result < 5.00

// query Respond only with pIC50 recorded for COC(=O)c1ccc2c(C(=Nc3ccc(N(C)C(=O)CN4CCN(C)CC4)cc3)c3ccccc3)c(O)[nH]c2c1 + CNCc1ccccc1-c1csc(C(C)Nc2nc(C)nc3cc(OC)c(OC)cc23)c1
// result > 7.50

// query Please give measured pIC50 of the following entry: Cn1nccc1Nc1nccc(-c2cc3c(s2)C(C)(C)N(CCN2CCOCC2)C3=O)n1 + C=CC(=O)N1CCN(c2nc(OCC3CCCN3C)nc3c2CCN(c2cccc4cccc(C)c24)C3)CC1CC#N
// result 6.63

// query Give the value of pIC50 reported for the following: Cn1nccc1Nc1nccc(-c2cc3c(s2)C(C)(C)N(CCN2CCOCC2)C3=O)n1 + COc1cc2nc(C)nc(NC(C)c3cc(N)cc(C(F)(F)F)c3)c2cc1OC1CCOC1
// result 5.57

// query Note down pIC50 recorded for COc1cc2nccc(Oc3ccc(NC(=O)C4(C(=O)Nc5ccc(F)cc5)CC4)cc3)c2cc1OC + CC1OCC2(CCN(c3cnc(Sc4ccnc(N)c4Cl)c(N)n3)CC2)C1N
// result < 5.00

// query Please list pIC50 recorded for the compound CCNC(=O)CC1N=C(c2ccc(Cl)cc2)c2cc(OC)ccc2-n2c(C)nnc21 (stereo not drawn) + C=CC(=O)N1CCN(c2nc(=O)n(-c3c(C)ccnc3C(C)C)c3nc(-c4c(O)cccc4F)c(F)cc23)C(C)C1
// result < 5.00
